Molecular target: SauLRS (leucyl-tRNA synthetase from Staphylococcus aureus) (Staphylococcus aureus, UniProt Q2FXH2)
Construct: made in house; host or cells: Escherichia coli M15
Sequence (Q2FXH2 whole entry): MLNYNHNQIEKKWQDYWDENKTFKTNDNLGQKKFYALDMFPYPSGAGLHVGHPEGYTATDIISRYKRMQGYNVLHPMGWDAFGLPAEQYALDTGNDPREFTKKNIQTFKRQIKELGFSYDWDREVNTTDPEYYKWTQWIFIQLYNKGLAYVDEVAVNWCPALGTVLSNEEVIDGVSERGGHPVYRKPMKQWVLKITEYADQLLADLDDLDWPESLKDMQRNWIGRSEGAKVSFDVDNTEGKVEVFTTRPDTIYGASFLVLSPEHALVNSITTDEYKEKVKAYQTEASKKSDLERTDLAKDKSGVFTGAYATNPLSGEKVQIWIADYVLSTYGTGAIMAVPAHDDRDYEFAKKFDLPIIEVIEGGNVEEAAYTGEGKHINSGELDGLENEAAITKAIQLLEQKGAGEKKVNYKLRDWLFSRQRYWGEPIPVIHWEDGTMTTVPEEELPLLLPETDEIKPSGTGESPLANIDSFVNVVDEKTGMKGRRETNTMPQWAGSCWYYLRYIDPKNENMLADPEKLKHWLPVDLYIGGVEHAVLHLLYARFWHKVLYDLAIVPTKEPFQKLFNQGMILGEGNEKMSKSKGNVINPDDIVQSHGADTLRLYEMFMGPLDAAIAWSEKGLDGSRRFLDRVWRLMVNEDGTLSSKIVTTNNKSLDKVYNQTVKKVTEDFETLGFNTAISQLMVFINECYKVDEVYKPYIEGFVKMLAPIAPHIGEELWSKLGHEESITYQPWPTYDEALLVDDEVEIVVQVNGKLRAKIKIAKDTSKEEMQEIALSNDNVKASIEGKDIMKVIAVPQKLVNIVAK
Test: aaRS aminoacylation assay (ATP consumption), SauLRS
Format: biochemical
Details: i.a. = inactive at a concentration below 50 uM; read-out: IC50 SauLRS
pIC50: −log10 of the molar value.
Respond with met for pIC50 values of 5 and above, not met for values below.

Would you please look over these solved cases?
>>> classassignment("CC(C)C[C@H](N)C(=O)NS(=O)(=O)c1cccc(-c2cc(N)nc(N)n2)c1")
"met"
>>> classassignment("CC(C)C[C@H](N)C(=O)NS(=O)(=O)c1cccc(-c2cc(N)ncn2)c1")
"met"
>>> classassignment("COc1ccc2cc(S(=O)(=O)NC(=O)[C@@H](N)CC(C)C)ccc2c1")
"met"

Attention now shifts to the item below.
// query Reported pIC50 at or above 5? CC(C)C[C@H](N)C(=O)NS(=O)(=O)c1ccccc1F
// result not met

---

Target: EcoVRS (valyl-tRNA synthetase from Escherichia coli) (Escherichia coli, UniProt P07118)
Construct: made in house; host or cells: Escherichia coli M15
Sequence (P07118 whole entry): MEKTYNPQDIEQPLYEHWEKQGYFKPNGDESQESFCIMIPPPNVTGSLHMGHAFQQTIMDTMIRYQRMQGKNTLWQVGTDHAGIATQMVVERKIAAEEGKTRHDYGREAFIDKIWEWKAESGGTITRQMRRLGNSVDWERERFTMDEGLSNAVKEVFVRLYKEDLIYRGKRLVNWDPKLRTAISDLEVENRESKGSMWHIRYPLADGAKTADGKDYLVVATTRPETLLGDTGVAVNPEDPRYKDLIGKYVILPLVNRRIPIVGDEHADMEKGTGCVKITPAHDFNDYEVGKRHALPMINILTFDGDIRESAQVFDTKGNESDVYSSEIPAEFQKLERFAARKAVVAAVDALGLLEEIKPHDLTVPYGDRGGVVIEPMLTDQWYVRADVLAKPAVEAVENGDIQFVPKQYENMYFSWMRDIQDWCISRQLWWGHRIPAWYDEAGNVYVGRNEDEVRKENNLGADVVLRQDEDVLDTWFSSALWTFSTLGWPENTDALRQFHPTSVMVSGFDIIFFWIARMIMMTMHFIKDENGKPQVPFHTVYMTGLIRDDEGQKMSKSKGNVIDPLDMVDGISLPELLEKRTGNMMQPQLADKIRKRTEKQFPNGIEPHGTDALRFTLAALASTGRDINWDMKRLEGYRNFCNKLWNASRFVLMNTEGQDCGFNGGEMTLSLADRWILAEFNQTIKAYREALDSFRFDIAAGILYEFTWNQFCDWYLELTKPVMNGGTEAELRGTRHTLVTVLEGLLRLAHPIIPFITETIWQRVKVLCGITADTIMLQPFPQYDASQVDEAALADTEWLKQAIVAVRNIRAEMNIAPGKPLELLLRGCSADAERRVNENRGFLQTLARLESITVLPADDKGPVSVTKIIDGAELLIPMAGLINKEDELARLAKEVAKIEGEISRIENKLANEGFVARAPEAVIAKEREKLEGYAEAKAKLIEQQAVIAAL
Assay: aaRS aminoacylation assay (ATP consumption), EcoVRS
Format: biochemical
Settings: i.a. = inactive at a concentration below 50 uM
readout: IC50 EcoVRS

>>> valuereported("CC(C)C[C@H](N)C(=O)NS(=O)(=O)c1cccc(-c2ccncc2)c1")
"i.a."
>>> valuereported("Cc1cc(-c2cccc(S(=O)(=O)NC(=O)[C@@H](N)CC3CCC3)c2)nc(N)n1")
"i.a"
>>> valuereported("CC(C)C[C@H](N)C(=O)NS(=O)(=O)c1cccc(-c2ccnc(N)c2)c1")
"i.a."
>>> valuereported("CC(C)C[C@H](N)C(=O)NS(=O)(=O)c1cccc2c1CNCC2")
"i.a"

---

Target: EcoLRS (leucyl-tRNA synthetase from Escherichia coli) (Escherichia coli)
Construct: made in house; host or cells: Escherichia coli M15
Sequence (P07813 whole entry): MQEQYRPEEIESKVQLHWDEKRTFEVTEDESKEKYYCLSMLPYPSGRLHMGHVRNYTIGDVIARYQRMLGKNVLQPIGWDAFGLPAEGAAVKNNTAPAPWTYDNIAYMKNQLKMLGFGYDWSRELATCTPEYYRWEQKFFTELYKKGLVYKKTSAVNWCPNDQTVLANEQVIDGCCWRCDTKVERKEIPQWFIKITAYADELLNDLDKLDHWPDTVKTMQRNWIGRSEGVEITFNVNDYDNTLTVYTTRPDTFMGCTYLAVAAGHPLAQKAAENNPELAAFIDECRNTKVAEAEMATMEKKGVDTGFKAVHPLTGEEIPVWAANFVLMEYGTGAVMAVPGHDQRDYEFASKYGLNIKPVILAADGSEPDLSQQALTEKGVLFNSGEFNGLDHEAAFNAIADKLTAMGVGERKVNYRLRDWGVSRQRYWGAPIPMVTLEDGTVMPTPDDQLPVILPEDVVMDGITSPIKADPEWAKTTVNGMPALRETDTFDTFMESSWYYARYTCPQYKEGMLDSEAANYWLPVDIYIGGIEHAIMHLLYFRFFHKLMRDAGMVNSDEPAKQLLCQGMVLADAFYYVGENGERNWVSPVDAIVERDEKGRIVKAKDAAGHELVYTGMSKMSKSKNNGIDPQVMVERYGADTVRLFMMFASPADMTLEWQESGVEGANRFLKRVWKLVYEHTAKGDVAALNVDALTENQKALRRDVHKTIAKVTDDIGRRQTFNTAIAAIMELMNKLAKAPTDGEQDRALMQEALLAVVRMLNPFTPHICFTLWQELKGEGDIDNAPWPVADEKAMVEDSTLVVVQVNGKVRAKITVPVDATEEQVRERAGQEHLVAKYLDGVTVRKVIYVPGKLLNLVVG
Assay: aaRS aminoacylation assay (ATP consumption), EcoLRS
Format: biochemical
Where a name gives a salt, the structure may show the parent alone.
I'd be grateful if you could share measured IC50 for these entries.
Answer with the value and then the unit.

>>> valuereported("CC(C)C[C@H](N)C(=O)NS(=O)(=O)c1c(C(C)C)cc(C(C)C)cc1C(C)C")
"32700 nM"

Hi! Can you tell me IC50 for each of these compounds?
1. CC(C)C[C@H](N)C(=O)NS(=O)(=O)c1ccc(Br)c2ccncc12 [Compound 5.22, trifluoroacetate]
2. CC(C)C[C@H](N)C(=O)NS(=O)(=O)c1cccc(-c2cc(-c3ccccc3)nc(N)n2)c1

// result
1. 2400 nM
2. 220 nM

---

Target: SauLRS (leucyl-tRNA synthetase from Staphylococcus aureus) (Staphylococcus aureus)
Construct: made in house; host or cells: Escherichia coli M15
Experiment: aaRS aminoacylation assay (ATP consumption), SauLRS
Assay type: biochemical
Conditions: i.a. = inactive at a concentration below 50 uM; read-out: IC50 SauLRS
Structures can show the parent of a compound that is named as a salt.
Binary call on IC50 with cut-off 8 µM: strictly below means condition met, and equality or higher means condition not met.

Use these answered entries as a reference point.
>>> classassignment("CC(C)C[C@H](N)C(=O)NS(=O)(=O)c1cccc2ccccc12")
"condition not met"
>>> classassignment("Cc1cc(-c2cccc(S(=O)(=O)NC(=O)[C@@H](N)CC(C)C)c2)nc(N)n1")
"condition met"
>>> classassignment("CCCCc1ccc(S(=O)(=O)NC(=O)[C@@H](N)CC(C)C)cc1")
"condition met"
>>> classassignment("CC(C)C[C@H](N)C(=O)NS(=O)(=O)c1cccc2cc(C(N)=O)ncc12")
"condition not met"
>>> classassignment("COc1cc(-c2cccc(S(=O)(=O)NC(=O)[C@@H](N)CC(C)C)c2)nc(N)n1")
"condition met"

// query Determine whether this molecule shows IC50 lower than 8 µM (ties excluded): CCc1cc(-c2cccc(S(=O)(=O)NC(=O)[C@@H](N)CC(C)C)c2)nc(N)n1
// result condition met

// query Report whether reported IC50 is lower than 8 µM (strictly) for CC(C)C[C@H](N)C(=O)NS(=O)(=O)c1ccccc1Cl
// result condition not met

// query Identify whether the molecule CC(C)C[C@H](N)C(=O)NS(=O)(=O)c1ccccc1 [Compound 5.1, hydrochloride] records IC50 below 8 µM.
// result condition met
